# Tested target: Meditope enabled Clivatuzumab
# Sequence (chain, as listed by the source, chain 1 of 2): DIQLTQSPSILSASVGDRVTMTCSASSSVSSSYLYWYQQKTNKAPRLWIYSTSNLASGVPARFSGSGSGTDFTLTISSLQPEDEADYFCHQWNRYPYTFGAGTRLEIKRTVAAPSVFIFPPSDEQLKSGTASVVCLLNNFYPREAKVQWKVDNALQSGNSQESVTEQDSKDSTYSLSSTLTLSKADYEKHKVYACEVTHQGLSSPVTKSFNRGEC
# Sequence (chain, as listed by the source, chain 2 of 2): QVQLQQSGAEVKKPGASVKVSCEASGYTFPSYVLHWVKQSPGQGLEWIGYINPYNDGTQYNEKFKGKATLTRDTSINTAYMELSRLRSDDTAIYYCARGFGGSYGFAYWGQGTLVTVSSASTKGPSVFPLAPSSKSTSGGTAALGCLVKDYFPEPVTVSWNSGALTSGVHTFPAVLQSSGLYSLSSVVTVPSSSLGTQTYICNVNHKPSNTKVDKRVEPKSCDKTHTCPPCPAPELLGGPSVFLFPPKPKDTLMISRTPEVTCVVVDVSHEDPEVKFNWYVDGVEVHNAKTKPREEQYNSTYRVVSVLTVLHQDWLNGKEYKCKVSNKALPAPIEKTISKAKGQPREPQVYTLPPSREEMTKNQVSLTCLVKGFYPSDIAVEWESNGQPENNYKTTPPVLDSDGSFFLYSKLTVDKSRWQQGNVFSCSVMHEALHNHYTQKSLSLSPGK
# Protocol summary: BLI Octet, antibody on anti-human Fc tip, peptide 333 nM
Parameter measured: Kd

>  <Binder>
CQFDLSTRRLRC (modifications not checked) [Peptide 22: DM1 conjugated cQFD (cQFD-DM1)]

>  <Val>
2.69 nM

$$$$

# credit: patent US20190111149A1
